Data origin: patent US11787775B2

Target: TEAD3 YAP50-100 (Homo sapiens (Human), UniProt Q99594)
Sequence (Q99594 218-435): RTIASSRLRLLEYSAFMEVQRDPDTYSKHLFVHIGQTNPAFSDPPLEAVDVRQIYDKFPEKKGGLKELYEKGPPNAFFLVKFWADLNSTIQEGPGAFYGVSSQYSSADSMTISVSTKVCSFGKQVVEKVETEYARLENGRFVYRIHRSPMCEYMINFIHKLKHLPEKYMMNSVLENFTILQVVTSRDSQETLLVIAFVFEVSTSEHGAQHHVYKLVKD
Experiment: TEAD-YAP protein-protein interaction HTRF assay
Details: TEAD3 YAP50-100 HTRF combined EC50, 30 mins incubation with compound
Experimental: Purified His-tagged TEAD protein (YAP Binding Domain, amino acids 217-447) is pre-incubated with Europium labelled anti-His antibody tracer (Perkin Elmer Cat #AD0110). […] After 60 minutes, the plate is read on a plate reader using TR-FRET mode with wavelengths of 665 nm/615 nm. […] The potency of compounds as YAP:TEAD or TAZ:TEAD protein-protein interaction (PPi) inhibitors is determined by an IC50 or EC50 value generated using a non-linear four parameter curve fit. […]
Assign EC50 to each entry below.

stdin: Please report the recorded EC50 for C=C(CNc1cnc(OC)c(/C=C/[C@H]2CC[C@H](C(F)(F)F)CC2)c1)C(=O)O .
stdout: > 50 µM

stdin: Please report the recorded EC50 for C=C(CNc1nc(-c2ccc(C(C)C)cc2)c2c(c1C#N)CCO2)C(=O)O .
stdout: > 50 µM

stdin: Please report the recorded EC50 for C=C(CNc1cc(-c2ccc(C(C)C)cc2)c2c(c1C#N)CCO2)C(=O)NC .
stdout: > 50 µM

stdin: Please report the recorded EC50 for C=C(CNc1cc(-c2ccc(C(C)C)cc2)c2c(c1CO)CCO2)C(=O)O .
stdout: > 50 µM

stdin: Please report the recorded EC50 for C=C(CNc1nc2c(c(-c3ccc(C(C)C)cc3)n1)OCC2)C(=O)O .
stdout: > 50 µM

stdin: Please report the recorded EC50 for C=C(CNc1cc(-c2ccc(C(C)C)cc2)c2c(c1F)CCO2)C(=O)O .
stdout: > 50 µM

stdin: Please report the recorded EC50 for C=C(CNc1cc(-c2ccc(C(C)C)cc2)c2c(c1C(N)=O)CCO2)C(=O)O .
stdout: > 50 µM

stdin: Please report the recorded EC50 for C=C(CNc1cc(-c2c(F)cc(C(C)C)cc2F)c2c(c1C#N)CCO2)C(=O)O .
stdout: > 50 µM

stdin: Please report the recorded EC50 for C=C(CNc1cc(-c2ccc(C(C)C)cc2F)c2c(c1C#N)CCO2)C(=O)O .
stdout: 8.2 µM

stdin: Please report the recorded EC50 for C=C(CNc1cc(-c2ccc(C(C)(F)F)cc2)c2ncsc2c1C#N)C(=O)O .
stdout: 15 µM

stdin: Please report the recorded EC50 for C=C(CN(C)c1cc(-c2ccc(C(C)C)cc2)c2c(c1C#N)CCO2)C(=O)O .
stdout: > 50 µM

stdin: Please report the recorded EC50 for C=C(CNc1cc(-c2ccc(C(C)C)cn2)c2c(c1C#N)CCO2)C(=O)O .
stdout: > 50 µM

stdin: Please report the recorded EC50 for C=C(CNc1cc2c(c(-c3ccc(C(C)C)cc3)c1)OCC2)C(=O)O .
stdout: > 50 µM

stdin: Please report the recorded EC50 for C=C(CNc1cc(-c2ccc(C(C)C(F)(F)F)cc2)c2c(c1C#N)CCO2)C(=O)O (single isomer, unassigned) [Enantiomer D from Example 16] .
stdout: > 50 µM

stdin: Please report the recorded EC50 for C=C(CNc1cc(-c2ccc(OC(F)(F)F)cc2)c2ncsc2c1C#N)C(N)=O .
stdout: > 50 µM

stdin: Please report the recorded EC50 for C=C(CNc1cc(-c2ccc(C(C)C(F)(F)F)cc2)c2c(c1C#N)CCO2)C(=O)O (single isomer, unassigned) [Enantiomer C from Example 16] .
stdout: 5.9 µM

stdin: Please report the recorded EC50 for C=C(CNc1cc2c(c(-c3ccc(C(C)C)cc3)c1)OCC2)C(N)=O .
stdout: 18 µM
